condition summary: human gut metagenome, 24 h, 2 µM; further: call rule not given here
parameter measured: Bacterial Biotransformation

{"columns": ["compound", "recorded measurement"],
 "data": [
  ["CC(C)(C)NC[C@H](O)COc1nsnc1N1CCOCC1.O=C(O)/C=C\\C(=O)O [TIMOLOL MALEATE]", "Compound NOT metabolized"],
  ["CN(C)CCOC(c1ccc(Cl)cc1)c1ccccn1.O=C(O)/C=C\\C(=O)O (centres undefined) [CARBINOXAMINE MALEATE]", "Compound metabolized"],
  ["CN1CCC(OC(c2ccccc2)c2ccccc2)CC1", "Compound metabolized"],
  ["CN1CCN(C2=Nc3ccccc3Oc3ccc(Cl)cc32)CC1.O=C(O)CCC(=O)O [LOXAPINE SUCCINATE]", "Compound NOT metabolized"],
  ["CC[C@H](C)C(=O)O[C@H]1CCC=C2C=C[C@H](C)[C@H](CC[C@@H]3C[C@@H](O)CC(=O)O3)[C@H]21 [MEVASTATIN]", "Compound metabolized"],
  ["CC#CCn1c(N2CCC[C@@H](N)C2)nc2c1c(=O)n(Cc1nc(C)c3ccccc3n1)c(=O)n2C [LINAGLIPTIN]", "Compound NOT metabolized"],
  ["CN1CCN2c3ccccc3Cc3ccccc3C2C1 (centres undefined) [MIANSERIN]", "Compound metabolized"],
  ["CN1[C@@H]2CC[C@H]1C[C@@H](OC(=O)c1c[nH]c3ccccc13)C2 [TROPISETRON]", "Compound NOT metabolized"],
  ["CC(C)(C)NCC(O)c1cc(Cl)c(N)c(Cl)c1 (centres undefined) [CLENBUTEROL]", "Compound NOT metabolized"]
]}

* * *

assay: The drug is tested on WLS-027 corresponding to human gut metagenome with ENA study accession number: PRJEB37062 and ENA sample accession number: ERS12561744 for biotransformation under anaerobic condition. The drug concentrations were measured over 9 timepoints collected between 0 and 24 hours of incubation by liquid-chromatography-coupled mass spectrometry (LC–MS)
condition summary: 2 µM

{"columns": ["compound", "Bacterial Biotransformation"],
 "data": [
  ["COc1ccc(C(CN(C)C)C2(O)CCCCC2)cc1 (stereo not drawn) [VENLAFAXINE]", "Compound NOT metabolized"],
  ["CCN(C)C(=O)Oc1cccc([C@H](C)N(C)C)c1.O=C(O)C(O)C(O)C(=O)O [RIVASTIGMINE TARTRATE]", "Compound NOT metabolized"],
  ["CCCCCNC(=N)N/N=C/c1c[nH]c2ccc(OC)cc12.O=C(O)/C=C\\C(=O)O [TEGASEROD MALEATE]", "Compound NOT metabolized"],
  ["C#C[C@]1(OC(C)=O)CC[C@H]2[C@@H]3CCC4=C/C(=N/O)CC[C@@H]4[C@H]3CC[C@@]21CC [NORGESTIMATE]", "Compound metabolized"],
  ["CN1[C@@H]2CC[C@H]1C[C@@H](OC(=O)c1c[nH]c3ccccc13)C2 [TROPISETRON]", "Compound NOT metabolized"],
  ["O=C1N=C([O-])NC1(c1ccccc1)c1ccccc1.[Na+] [PHENYTOIN SODIUM]", "Compound metabolized"],
  ["COc1cc(C(=O)NCc2ccc(OCCN(C)C)cc2)cc(OC)c1OC [TRIMETHOBENZAMIDE]", "Compound NOT metabolized"],
  ["O=C1C(CC[S+]([O-])c2ccccc2)C(=O)N(c2ccccc2)N1c1ccccc1 (stereo not drawn) [SULFINPYRAZONE]", "Compound metabolized"]
]}

* * *

condition summary: human gut metagenome, 24 h, 2 µM
parameter measured: Bacterial Biotransformation

{"columns": ["compound", "recorded measurement"],
 "data": [
  ["COc1cc2nc(N3CCN(C(=O)C4COc5ccccc5O4)CC3)nc(N)c2cc1OC.CS(=O)(=O)O (stereo not drawn) [DOXAZOSIN MESYLATE]", "Compound NOT metabolized"],
  ["Cc1cc(C)cc(OCC2CNC(=O)O2)c1 (stereo not drawn)", "Compound NOT metabolized"],
  ["CN(C)C(=O)Oc1cccc([N+](C)(C)C)c1.[Br-] [NEOSTIGMINE BROMIDE]", "Compound NOT metabolized"],
  ["COc1ccc(Cc2nccc3cc(OC)c(OC)cc23)cc1OC", "Compound metabolized"],
  ["CCS(=O)(=O)CCn1c([N+](=O)[O-])cnc1C", "Compound metabolized"],
  ["CN1CCN(C2=Nc3ccccc3Oc3ccc(Cl)cc32)CC1.O=C(O)CCC(=O)O [LOXAPINE SUCCINATE]", "Compound NOT metabolized"],
  ["CC(C)C[C@H]1C(=O)N2CCC[C@H]2[C@]2(O)O[C@](NC(=O)[C@@H]3C=C4c5cccc6[nH]c(Br)c(c56)C[C@H]4N(C)C3)(C(C)C)C(=O)N12.CS(=O)(=O)O [BROMOCRIPTINE MESYLATE]", "Compound metabolized"],
  ["O=P1(N(CCCl)CCCl)NCCCO1 (stereo not drawn) [CYCLOPHOSPHAMIDE ANHYDROUS]", "Compound NOT metabolized"]
]}

* * *

condition summary: human gut metagenome, 24 h, 2 µM

{"columns": ["molecule", "Bacterial Biotransformation"],
 "data": [
  ["CC#C[C@]1(O)CC[C@H]2[C@@H]3CCC4=CC(=O)CCC4=C3[C@@H](c3ccc(N(C)C)cc3)C[C@@]21C [MIFEPRISTONE]", "Compound metabolized"],
  ["CCCN1C[C@H](CSC)C[C@@H]2c3cccc4[nH]cc(c34)C[C@H]21.CS(=O)(=O)O [PERGOLIDE MESYLATE]", "Compound NOT metabolized"],
  ["CN(CCOc1ccc(CC2SC(=O)NC2=O)cc1)c1ccccn1.O=C(O)/C=C\\C(=O)O (stereo not drawn) [ROSIGLITAZONE MALEATE]", "Compound NOT metabolized"],
  ["O=C(CCCN1CCC2(CC1)C(=O)NCN2c1ccccc1)c1ccc(F)cc1 [SPIPERONE]", "Compound metabolized"],
  ["COc1cc2nc(N3CCN(C(=O)C4COc5ccccc5O4)CC3)nc(N)c2cc1OC.CS(=O)(=O)O (stereo not drawn) [DOXAZOSIN MESYLATE]", "Compound metabolized"],
  ["CC(C)(C)NC[C@H](O)COc1nsnc1N1CCOCC1.O=C(O)/C=C\\C(=O)O [TIMOLOL MALEATE]", "Compound NOT metabolized"],
  ["O=C(O)c1cc(/N=N/c2ccc(S(=O)(=O)Nc3ccccn3)cc2)ccc1O [SULFASALAZINE]", "Compound metabolized"],
  ["CCN(C)C(=O)Oc1cccc([C@H](C)N(C)C)c1.O=C(O)C(O)C(O)C(=O)O [RIVASTIGMINE TARTRATE]", "Compound metabolized"],
  ["COCCCC/C(=N\\OCCN)c1ccc(C(F)(F)F)cc1.O=C(O)/C=C\\C(=O)O [FLUVOXAMINE MALEATE]", "Compound metabolized"],
  ["CC(C)C[C@H]1C(=O)N2CCC[C@H]2[C@]2(O)O[C@](NC(=O)[C@@H]3C=C4c5cccc6[nH]c(Br)c(c56)C[C@H]4N(C)C3)(C(C)C)C(=O)N12.CS(=O)(=O)O [BROMOCRIPTINE MESYLATE]", "Compound metabolized"],
  ["N=C(N)NC(=O)Cc1c(Cl)cccc1Cl [GUANFACINE]", "Compound NOT metabolized"],
  ["CCN(CC)CCNC(=O)c1ccc(NC(C)=O)cc1 [ACECAINIDE]", "Compound NOT metabolized"],
  ["CC(=O)Nc1ccc(OC(C)=O)cc1 [DIACETAMATE]", "Compound metabolized"],
  ["CC[C@H](C)C(=O)O[C@H]1CCC=C2C=C[C@H](C)[C@H](CC[C@@H]3C[C@@H](O)CC(=O)O3)[C@H]21 [MEVASTATIN]", "Compound metabolized"],
  ["CC(N)C12CC3CC(CC(C3)C1)C2 (stereo not drawn) [RIMANTADINE]", "Compound NOT metabolized"],
  ["CCOC(=O)C1=C[C@]2(CC)CCCN3CCc4c(n1c1ccccc41)[C@@H]32 [VINPOCETINE]", "Compound metabolized"],
  ["Clc1cccc(Cl)c1N=C1NCCN1 [CLONIDINE]", "Compound metabolized"],
  ["CNCC[C@H](Oc1cccc2ccccc12)c1cccs1 [DULOXETINE]", "Compound NOT metabolized"],
  ["Cc1nc(Nc2ncc(C(=O)Nc3c(C)cccc3Cl)s2)cc(N2CCN(CCO)CC2)n1 [DASATINIB ANHYDROUS]", "Compound metabolized"],
  ["CC(=O)OCC(CCn1cnc2cnc(N)nc21)COC(C)=O [FAMCICLOVIR]", "Compound metabolized"],
  ["CCc1cccc2c3c([nH]c12)C(CC)(CC(=O)O)OCC3 (stereo not drawn) [ETODOLAC]", "Compound metabolized"],
  ["Br.COc1ccc2c(c1)[C@]13CCCC[C@@H]1[C@H](C2)N(C)CC3.O [DEXTROMETHORPHAN HYDROBROMIDE]", "Compound metabolized"],
  ["CCN(CC)CCOC(=O)C1(C2CCCCC2)CCCCC1 [DICYCLOMINE]", "Compound metabolized"],
  ["O=C1N=C([O-])NC1(c1ccccc1)c1ccccc1.[Na+] [PHENYTOIN SODIUM]", "Compound metabolized"],
  ["CC12CC3CC(C)(C1)CC(N)(C3)C2 [MEMANTINE]", "Compound NOT metabolized"],
  ["CC(C)(C)NC(=O)[C@H]1CC[C@H]2[C@@H]3CC[C@H]4NC(=O)C=C[C@]4(C)[C@H]3CC[C@]12C [FINASTERIDE]", "Compound metabolized"],
  ["C#C[C@]1(OC(C)=O)CC[C@H]2[C@@H]3CCC4=C/C(=N/O)CC[C@@H]4[C@H]3CC[C@@]21CC [NORGESTIMATE]", "Compound NOT metabolized"],
  ["CN[C@H]1CC[C@@H](c2ccc(Cl)c(Cl)c2)c2ccccc21 [SERTRALINE]", "Compound NOT metabolized"],
  ["Cc1ccccc1C(OCCN(C)C)c1ccccc1.O=C(O)CC(O)(CC(=O)O)C(=O)O (stereo not drawn) [ORPHENADRINE CITRATE]", "Compound NOT metabolized"],
  ["CC(NC(C)(C)C)C(=O)c1cccc(Cl)c1 (stereo not drawn) [BUPROPION]", "Compound NOT metabolized"],
  ["CN(C)CCC=C1c2ccccc2COc2ccccc21 [DOXEPIN]", "Compound NOT metabolized"],
  ["c1ccc2[nH]c(-c3cscn3)nc2c1 [THIABENDAZOLE]", "Compound NOT metabolized"],
  ["CC(=O)O[C@]1(C(C)=O)CC[C@H]2[C@@H]3C=C(C)C4=CC(=O)CC[C@]4(C)[C@H]3CC[C@@]21C [MEGESTROL ACETATE]", "Compound metabolized"]
]}
